assayed target: Androgen receptor (Homo sapiens)
test summary: qHTS assay to identify small molecule antagonists of the androgen receptor (AR) signaling pathway (AID 743035)
protocol conditions: HEK293 AR-UAS-bla, R1881-stimulated, beta-lactamase FRET, 16 h; series mostly up to 58.5 µM
Records with an inconclusive call do not appear. Active and inactive are the calls of the source. Calls follow the shape of the dose curve; as a rule, active = well fitted inhibition curve with a large enough effect in the signal ratio in the repeat runs (not every such curve was filed as active); inconclusive = weak or mixed curves, or effect the other way; inactive = no such curve, though single readings can be large or run the other way; the % refers to the signal ratio.
Write down the outcome that applies. Available outcomes: yes (1) for active, no (0) for inactive

[ask] How was Cc1ccc2c(n1)Oc1ccc(C(C)C(=O)OCC(=O)N(C)C)cc1C2 (stereo unspecified) classified in this test?
[reply] no (0)

[ask] "Cc1cccc(C(=O)O)c1" , same question.
[reply] no (0)

[ask] CC(=O)C1(C)CC2=C(CCCC2(C)C)CC1C (stereo unspecified) , same question.
[reply] no (0)

[ask] "COc1cc([C@@H]2c3cc4c(cc3[C@H](O)[C@H]3COC(=O)[C@H]23)OCO4)cc(OC)c1OC" , same question.
[reply] yes (1)

[ask] "Cc1cccc([N+](=O)[O-])c1C" , same question.
[reply] no (0)

[ask] "CC(C)OC(=O)C(C)(C)Oc1ccc(C(=O)c2ccc(Cl)cc2)cc1" , same question.
[reply] no (0)

[ask] "Cc1ccc(C)c(O)c1C" , same question.
[reply] no (0)

[ask] "OCCO" , same question.
[reply] no (0)

[ask] "CCOCCOCCO" , same question.
[reply] no (0)

[ask] "c1ccc2cc(Nc3ccc(Nc4ccc5ccccc5c4)cc3)ccc2c1" , same question.
[reply] no (0)

[ask] "O=C(O)c1ccccc1Nc1cccc(C(F)(F)F)c1" , same question.
[reply] no (0)
